Below, each entry is listed alongside its reported apparent KD of K4 kissing-loop reporter.
System: K4 kissing-loop RNA reporter;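 further: bound reporter read as fluorescence of individual clusters on recovered sequencing chips by microscopy, with normalized cluster intensities fitted with a binding model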
run.description: apparent KD of K4 kissing-loop reporter; higher = weaker reporter binding
setup.conditions: Eterna round: R107; input ligand: theophylline 20 uM

[
  {
    "sequence.input": "AUCGUUGCCAUUAGGACAUACGGUCCUGAACGAGGACCGGUACGGCCGCCACUCGAGCACACGAGUGAUGUUCGUGGGCAACGAU [Tryp A SS t1]",
    "target.of.assay": "K4 kissing-loop RNA reporter",
    "apparent KD of K4 kissing-loop reporter": "0.136 µM"
  },
  {
    "sequence.input": "UUGACCAAAUUCCGGUGAUCAUCGCCGCCGCGAGGACCGGUACGGCCGCCACUCGUCCCUAUGCUCGGAGUAGUGAUGUUAUUCA [theeternabot_sameState_KL_Trp_A_43]",
    "target.of.assay": "K4 kissing-loop RNA reporter",
    "apparent KD of K4 kissing-loop reporter": "0.28 µM"
  },
  {
    "sequence.input": "AUAAUAUUGCGAGGAUAUCCUUCCCACGUCGAAGUACCGUGCUUGAUGGAGUGAUGUUCGAUCAGAGGAGAAGGCGCGGUGUUGU [Same State FMN B GF23]",
    "target.of.assay": "K4 kissing-loop RNA reporter",
    "apparent KD of K4 kissing-loop reporter": "0.611 µM"
  },
  {
    "sequence.input": "CCCAAAAUAUGCAGUGAUGUUGCAACCGAUACCAGUAUCGAAAGAUACCCUUGGCAGCGGAAAACCGCAACGUAAUUUAAAAGGG [Ex Theophylline A K4 16]",
    "target.of.assay": "K4 kissing-loop RNA reporter",
    "apparent KD of K4 kissing-loop reporter": "0.212 µM"
  },
  {
    "sequence.input": "GCCUAGGCUCGAAAGAGCCUAGGCUGGGCUCAGGAUAUCCGGAAACGGAGAAGGGAGGGACUAGUGAUGUUAGGGAUUCCCUAUG",
    "target.of.assay": "K4 kissing-loop RNA reporter",
    "apparent KD of K4 kissing-loop reporter": "0.251 µM"
  },
  {
    "sequence.input": "UCGCUCGAGUAAGGAUAUCAAUAUCAAAGGUCGUAGUGAUGUUAUACCAGGCCAAUUUGGCGGUAGUGAGAAGGUACUAGCAGUU [theeternabot_sameState_KL_FMN_B_38]",
    "target.of.assay": "K4 kissing-loop RNA reporter",
    "apparent KD of K4 kissing-loop reporter": "0.461 µM"
  },
  {
    "sequence.input": "GCGAAGAAGGUUGAUACCAGUCUUGCGUGUCAAGCGCCAGUGAUGUUGGGCCUGUAGAUCGACCCUUGGCAGCAACCUCGAAAUG [theeternabot_sameState_KL_Theo_B_28]",
    "target.of.assay": "K4 kissing-loop RNA reporter",
    "apparent KD of K4 kissing-loop reporter": "0.748 µM"
  },
  {
    "sequence.input": "UUUGGAUUGCACUAAGAGCGCAAGCGCCAACGAGGACCGGUACGGCCGCCACUCGCGGAGGAGUCCAGUGAUGUUGGACGGCCCG [Onenusan]",
    "target.of.assay": "K4 kissing-loop RNA reporter",
    "apparent KD of K4 kissing-loop reporter": "0.18 µM"
  },
  {
    "sequence.input": "GCCAGAGCGCGAAGGAGCGCCGUGACAGGUUACUGCCUUGGGCAGUGAUGUUGCUCAAUCUGGCAGGUAGGUCGCGUGCUCUGGC",
    "target.of.assay": "K4 kissing-loop RNA reporter",
    "apparent KD of K4 kissing-loop reporter": "0.202 µM"
  },
  {
    "sequence.input": "AGAUUCGACACGGCCGCCACUUCCGGUGGCUGGUGUCAUGGUGCGCGUGAGUGAUGUUUAUGUGGAAGGACCGGGUGUUGAGUCU [whbob_Ex_Tryp_B_w41]",
    "target.of.assay": "K4 kissing-loop RNA reporter",
    "apparent KD of K4 kissing-loop reporter": "0.751 µM"
  },
  {
    "sequence.input": "UUAGAGAUCUCAGGAUAUCAGUGAUGUUGGUAUCAAGAUCUGAGAUAGAAUUCUAUCUCAGAUCAAUGAGAAGGGAGAUCUCAUU [AK3.3 Exc FMN B]",
    "target.of.assay": "K4 kissing-loop RNA reporter",
    "apparent KD of K4 kissing-loop reporter": "0.176 µM"
  },
  {
    "sequence.input": "GCUAGGCAUGCAGGAUAUCGUGGAGUGAUGUUCCGUUGGCUGCUAGCGGAAAACGCUAGCAGCCUACGAGAAGGGCAUGCCUAGC",
    "target.of.assay": "K4 kissing-loop RNA reporter",
    "apparent KD of K4 kissing-loop reporter": "0.41 µM"
  }
]

Values were extracted from the supplement of paper PMC9170038.
